- SYSTEM_TESTED: Histone-lysine N-methyltransferase SETD7 (Homo sapiens)
- Sequence (Q8WTS6 whole entry): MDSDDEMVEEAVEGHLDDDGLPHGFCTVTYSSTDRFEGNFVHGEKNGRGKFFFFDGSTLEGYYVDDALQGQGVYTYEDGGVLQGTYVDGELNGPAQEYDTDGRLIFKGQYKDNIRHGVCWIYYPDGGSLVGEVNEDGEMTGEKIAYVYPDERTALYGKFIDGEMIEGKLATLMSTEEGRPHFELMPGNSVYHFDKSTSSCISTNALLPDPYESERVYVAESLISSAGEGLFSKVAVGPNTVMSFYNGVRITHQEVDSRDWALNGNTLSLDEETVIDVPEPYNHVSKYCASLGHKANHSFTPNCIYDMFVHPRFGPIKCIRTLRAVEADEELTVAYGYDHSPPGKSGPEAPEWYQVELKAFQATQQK
- ASSAY_NAME: Selectivity interaction (HMT panel) EUB0000194b SETD7
pIC50: −log10 of the molar value.
EXPERIMENTAL_ENDPOINT: pIC50

pIC50 measured on "COc1cc2c(NC3CCN(C(C)C)CC3)nc(N3CCC(F)(F)CC3)nc2cc1OCCCN1CCCC1" = < 5.00

* * *

- SYSTEM_TESTED: YEATS domain-containing protein 2 (Homo sapiens, UniProt Q9ULM3)
- Sequence (Q9ULM3 whole entry, the tested form may be a part): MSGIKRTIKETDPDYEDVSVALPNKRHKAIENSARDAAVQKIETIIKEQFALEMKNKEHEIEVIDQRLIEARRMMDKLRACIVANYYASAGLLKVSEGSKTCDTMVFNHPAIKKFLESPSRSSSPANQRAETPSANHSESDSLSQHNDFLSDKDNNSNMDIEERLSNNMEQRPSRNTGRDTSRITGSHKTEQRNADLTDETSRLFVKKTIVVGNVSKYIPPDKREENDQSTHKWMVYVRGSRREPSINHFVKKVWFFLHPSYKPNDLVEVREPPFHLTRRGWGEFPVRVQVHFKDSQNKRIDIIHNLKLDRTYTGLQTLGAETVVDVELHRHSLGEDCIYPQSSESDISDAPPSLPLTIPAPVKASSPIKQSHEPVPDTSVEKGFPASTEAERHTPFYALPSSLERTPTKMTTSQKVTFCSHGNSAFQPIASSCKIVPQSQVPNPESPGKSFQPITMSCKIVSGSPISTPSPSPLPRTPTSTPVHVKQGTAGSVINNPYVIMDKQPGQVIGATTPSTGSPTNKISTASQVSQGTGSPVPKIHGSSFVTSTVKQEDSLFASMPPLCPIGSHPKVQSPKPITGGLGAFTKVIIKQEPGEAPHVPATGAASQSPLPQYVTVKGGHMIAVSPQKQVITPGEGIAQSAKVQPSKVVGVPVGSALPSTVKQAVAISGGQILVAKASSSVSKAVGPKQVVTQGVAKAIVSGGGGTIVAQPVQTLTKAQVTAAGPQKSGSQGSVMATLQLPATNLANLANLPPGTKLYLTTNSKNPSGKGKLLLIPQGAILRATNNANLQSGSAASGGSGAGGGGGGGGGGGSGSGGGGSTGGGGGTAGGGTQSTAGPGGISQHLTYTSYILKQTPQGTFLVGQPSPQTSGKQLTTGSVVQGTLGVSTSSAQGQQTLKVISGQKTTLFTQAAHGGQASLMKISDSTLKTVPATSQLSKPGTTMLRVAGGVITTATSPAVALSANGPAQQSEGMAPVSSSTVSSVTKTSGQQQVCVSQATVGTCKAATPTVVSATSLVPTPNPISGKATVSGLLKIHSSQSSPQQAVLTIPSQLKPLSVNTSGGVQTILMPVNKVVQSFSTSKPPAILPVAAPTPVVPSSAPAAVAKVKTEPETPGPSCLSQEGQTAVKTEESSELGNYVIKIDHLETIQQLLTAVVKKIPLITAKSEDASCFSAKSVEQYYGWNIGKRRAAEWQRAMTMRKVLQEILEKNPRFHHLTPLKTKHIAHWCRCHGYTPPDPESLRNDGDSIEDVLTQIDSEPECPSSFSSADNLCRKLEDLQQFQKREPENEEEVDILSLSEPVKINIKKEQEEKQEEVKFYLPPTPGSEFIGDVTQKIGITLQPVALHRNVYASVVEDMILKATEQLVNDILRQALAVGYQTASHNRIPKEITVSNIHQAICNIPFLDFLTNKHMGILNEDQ
- ASSAY_NAME: Selectivity interaction (Enzyme panel (PDEs, ion channels, and GPCRS, HTRF assay)) EUB0000731a YEATS2
EXPERIMENTAL_ENDPOINT: IC50

Query "CN(C)C(=O)c1ccc(-c2cc(C(=O)N[C@@H]3CCc4ccccc43)no2)cc1O" yields IC50 of > 40 µM

* * *

- SYSTEM_TESTED: Mitogen-activated protein kinase 10 (Homo sapiens, UniProt P53779)
- Sequence (P53779 whole entry): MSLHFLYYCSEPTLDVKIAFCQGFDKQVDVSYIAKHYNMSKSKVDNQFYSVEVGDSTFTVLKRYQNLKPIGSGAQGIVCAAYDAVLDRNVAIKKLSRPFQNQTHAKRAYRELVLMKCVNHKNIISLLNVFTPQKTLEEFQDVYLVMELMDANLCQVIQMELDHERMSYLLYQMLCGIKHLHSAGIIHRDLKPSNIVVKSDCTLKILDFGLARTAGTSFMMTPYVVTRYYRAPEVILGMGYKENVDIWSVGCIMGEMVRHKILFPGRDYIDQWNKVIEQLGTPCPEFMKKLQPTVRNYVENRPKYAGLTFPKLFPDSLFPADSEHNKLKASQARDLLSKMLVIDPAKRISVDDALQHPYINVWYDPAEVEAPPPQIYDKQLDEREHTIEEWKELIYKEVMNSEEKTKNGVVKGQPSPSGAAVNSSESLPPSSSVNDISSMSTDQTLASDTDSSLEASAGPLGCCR
- ASSAY_NAME: Selectivity interaction (KinomeScan (DiscoverX, competition-binding assay)) EUB0000353a MAPK10
pKd: −log10 of the molar value.
EXPERIMENTAL_ENDPOINT: pKd

# pKd measured on Mitogen-activated protein kinase 10 (Homo sapiens, UniProt P53779) for item CN(C)[C@@H]1CCN(c2cc(-c3ccccc3)nc3ccnn23)C1 [(R)-ZINC-3573] = < 4.52

* * *

- SYSTEM_TESTED: Mitogen-activated protein kinase 14 (Homo sapiens, UniProt Q16539)
- Sequence (Q16539 whole entry): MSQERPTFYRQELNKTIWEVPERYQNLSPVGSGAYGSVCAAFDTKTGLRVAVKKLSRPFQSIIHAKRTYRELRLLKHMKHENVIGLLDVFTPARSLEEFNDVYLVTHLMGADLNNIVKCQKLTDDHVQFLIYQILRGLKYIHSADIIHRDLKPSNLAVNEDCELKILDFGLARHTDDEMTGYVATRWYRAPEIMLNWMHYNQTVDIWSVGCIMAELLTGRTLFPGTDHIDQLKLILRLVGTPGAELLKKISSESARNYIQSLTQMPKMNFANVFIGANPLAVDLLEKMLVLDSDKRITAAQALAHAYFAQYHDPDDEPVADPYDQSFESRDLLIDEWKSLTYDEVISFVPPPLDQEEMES
- ASSAY_NAME: Selectivity interaction (Enzymatic assay) EUB0000624a MAPK14
EXPERIMENTAL_ENDPOINT: IC50

IC50 reported for this compound "CCOc1ccn(-c2ccc(F)cc2)c(=O)c1C(=O)Nc1ccc(Oc2ccnc(N)c2Cl)c(F)c1" : > 2 µM

* * *

- SYSTEM_TESTED: Histone acetyltransferase KAT2B (Homo sapiens)
- ASSAY_NAME: Selectivity interaction (NanoBRET assay (HEK293T cells)) EUB0000253b KAT2B
pIC50: −log10 of the molar value.
EXPERIMENTAL_ENDPOINT: pIC50

Input "Cc1c(Nc2ccc(S(=O)(=O)N3CCN(C)CC3)cc2F)nc2ccc(-c3cnn(C4CC4)c3)cn2c1=O" . Output pIC50: < 5.00

* * *

- SYSTEM_TESTED: Histone-lysine N-methyltransferase SETD7 (Homo sapiens)
- ASSAY_NAME: Selectivity interaction (ITC) EUB0000196bCl SETD7
EXPERIMENTAL_ENDPOINT: pKd
The quantity pKd is defined as the negative base-10 logarithm of the molar concentration.

Short answer for "O=C([C@@H](Cc1cccc(C(F)(F)F)c1)NS(=O)(=O)c1cc(F)c2c(c1)CCNC2)N1CCCC1" : pKd was 7.74

* * *

- SYSTEM_TESTED: Casein kinase I isoform epsilon (Homo sapiens)
- ASSAY_NAME: Selectivity interaction (NanoBRET assay (HEK293T cells)) EUB0000718a CSNK1E
EXPERIMENTAL_ENDPOINT: IC50

The molecule listed as "O=C(NCCN1CCOCC1)c1ccc2c(c1)C(=O)c1ccc(Nc3ccc(F)c(NC(=O)c4ccccc4)c3)cc1CC2" shows IC50 equal to > 20 µM

* * *

- SYSTEM_TESTED: D(1A) dopamine receptor (Homo sapiens)
- Sequence (P21728 whole entry): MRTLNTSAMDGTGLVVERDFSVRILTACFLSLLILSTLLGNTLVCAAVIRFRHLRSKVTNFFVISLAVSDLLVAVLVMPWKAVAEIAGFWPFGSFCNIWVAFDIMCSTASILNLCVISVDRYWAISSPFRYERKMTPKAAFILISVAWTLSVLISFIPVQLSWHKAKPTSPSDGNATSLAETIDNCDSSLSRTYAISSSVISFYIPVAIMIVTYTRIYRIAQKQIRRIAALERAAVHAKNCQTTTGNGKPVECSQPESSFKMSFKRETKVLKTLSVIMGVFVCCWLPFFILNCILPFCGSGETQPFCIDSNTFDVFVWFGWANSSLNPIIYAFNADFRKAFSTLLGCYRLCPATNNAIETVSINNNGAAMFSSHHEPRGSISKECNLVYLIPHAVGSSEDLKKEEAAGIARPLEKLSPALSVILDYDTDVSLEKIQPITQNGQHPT
- ASSAY_NAME: Selectivity interaction (GPCR panel (PDSP screen)) EUB0000138c DRD1
pKi: −log10 of the molar value.
EXPERIMENTAL_ENDPOINT: pKi

compound CNC(=O)c1ccc(Nc2ncc(C(F)(F)F)c(NCc3nccnc3N(C)S(C)(=O)=O)n2)cc1 [DEFACTINIB] , pKi observed: < 5.00

* * *

- SYSTEM_TESTED: UniProt P06239
- Sequence (P06239 whole entry): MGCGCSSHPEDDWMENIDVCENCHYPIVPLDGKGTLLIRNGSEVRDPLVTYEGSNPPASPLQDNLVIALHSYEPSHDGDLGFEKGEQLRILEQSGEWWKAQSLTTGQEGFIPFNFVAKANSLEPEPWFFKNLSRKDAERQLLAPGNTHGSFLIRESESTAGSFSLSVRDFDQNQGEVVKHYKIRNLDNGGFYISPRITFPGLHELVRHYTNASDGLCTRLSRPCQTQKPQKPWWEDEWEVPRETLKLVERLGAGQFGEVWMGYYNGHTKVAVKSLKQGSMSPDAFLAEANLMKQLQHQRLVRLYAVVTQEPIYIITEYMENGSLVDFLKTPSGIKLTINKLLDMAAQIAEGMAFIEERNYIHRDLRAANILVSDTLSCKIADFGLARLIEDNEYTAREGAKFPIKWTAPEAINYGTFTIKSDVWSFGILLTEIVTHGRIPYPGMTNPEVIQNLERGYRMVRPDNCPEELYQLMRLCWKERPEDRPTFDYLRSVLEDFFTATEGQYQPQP
- ASSAY_NAME: Selectivity interaction (Z’-LYTE assay) EUB0000638a LCK
EXPERIMENTAL_ENDPOINT: IC50

Bench note, UniProt P06239: entry CC#CC(=O)N1CCC[C@H]1c1nc(-c2ccc(C(=O)Nc3ccccn3)cc2)c2c(N)nccn12 [ACALABRUTINIB] , its IC50 = > 10 µM

* * *

- SYSTEM_TESTED: Gamma-aminobutyric acid receptor subunit alpha-1 (Homo sapiens)
- ASSAY_NAME: Selectivity interaction (GPCR panel (PDSP screen)) EUB0000707a GABRA1
EXPERIMENTAL_ENDPOINT: pKi
Please report pKi as the negative decimal logarithm of the molar concentration, giving only the number.

Kindly note the recorded pKi for "CC1=C(C#N)C(c2ccc3c(c2)c(NC(=O)c2ccccc2C)nn3C)C(C#N)=C(C)N1" , which is 7.68

* * *

- SYSTEM_TESTED: Protein ENL (Homo sapiens)
- Sequence (Q03111 whole entry): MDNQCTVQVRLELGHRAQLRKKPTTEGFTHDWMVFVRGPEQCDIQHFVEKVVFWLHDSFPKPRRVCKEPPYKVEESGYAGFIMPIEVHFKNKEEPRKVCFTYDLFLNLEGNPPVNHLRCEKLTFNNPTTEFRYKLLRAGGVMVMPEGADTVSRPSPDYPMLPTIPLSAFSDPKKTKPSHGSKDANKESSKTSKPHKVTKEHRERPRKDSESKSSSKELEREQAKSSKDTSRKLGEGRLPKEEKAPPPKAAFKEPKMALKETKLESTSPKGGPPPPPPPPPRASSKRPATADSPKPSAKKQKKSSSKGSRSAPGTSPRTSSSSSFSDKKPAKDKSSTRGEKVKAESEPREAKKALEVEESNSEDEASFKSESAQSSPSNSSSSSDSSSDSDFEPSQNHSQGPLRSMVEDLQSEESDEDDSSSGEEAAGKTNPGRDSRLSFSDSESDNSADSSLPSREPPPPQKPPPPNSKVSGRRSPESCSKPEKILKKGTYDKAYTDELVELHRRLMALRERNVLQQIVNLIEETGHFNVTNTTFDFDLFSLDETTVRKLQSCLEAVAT
- ASSAY_NAME: Selectivity interaction (BioLayer Interferometry assay (BLI)) EUB0000283b MLLT1
EXPERIMENTAL_ENDPOINT: Kd (nM)
Form entry: value (nM) — number only.

Field Kd (entry "C[C@H]1CCCN1Cc1nc2cc(NC(=O)c3ccc4cnccc4c3)ccc2[nH]1" ) reads 75

* * *

- SYSTEM_TESTED: Gamma-aminobutyric acid receptor subunit alpha-1 (Homo sapiens, UniProt P14867)
- Sequence (P14867 whole entry): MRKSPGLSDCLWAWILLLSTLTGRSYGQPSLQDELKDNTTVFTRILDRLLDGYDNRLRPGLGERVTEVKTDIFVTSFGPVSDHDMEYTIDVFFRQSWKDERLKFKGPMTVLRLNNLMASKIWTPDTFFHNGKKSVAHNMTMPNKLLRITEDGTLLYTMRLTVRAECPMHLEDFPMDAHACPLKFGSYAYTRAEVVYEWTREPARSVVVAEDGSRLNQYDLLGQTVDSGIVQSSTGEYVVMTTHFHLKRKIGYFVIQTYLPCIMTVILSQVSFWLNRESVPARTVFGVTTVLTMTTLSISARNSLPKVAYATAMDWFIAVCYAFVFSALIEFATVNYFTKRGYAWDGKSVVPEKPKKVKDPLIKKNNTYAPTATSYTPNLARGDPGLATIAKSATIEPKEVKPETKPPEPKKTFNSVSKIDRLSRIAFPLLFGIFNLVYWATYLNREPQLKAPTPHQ
- ASSAY_NAME: Selectivity interaction (GPCR panel (PDSP screen)) EUB0000301b GABRA1
EXPERIMENTAL_ENDPOINT: pKi
// scale note: pKi = -log10(conc_M); give the bare number

Input "O=c1nc(-c2ccccn2)sc2ccccc12" . Output pKi: 6.03

* * *

- SYSTEM_TESTED: Histone-arginine methyltransferase CARM1 (Homo sapiens)
- Sequence (Q86X55 whole entry): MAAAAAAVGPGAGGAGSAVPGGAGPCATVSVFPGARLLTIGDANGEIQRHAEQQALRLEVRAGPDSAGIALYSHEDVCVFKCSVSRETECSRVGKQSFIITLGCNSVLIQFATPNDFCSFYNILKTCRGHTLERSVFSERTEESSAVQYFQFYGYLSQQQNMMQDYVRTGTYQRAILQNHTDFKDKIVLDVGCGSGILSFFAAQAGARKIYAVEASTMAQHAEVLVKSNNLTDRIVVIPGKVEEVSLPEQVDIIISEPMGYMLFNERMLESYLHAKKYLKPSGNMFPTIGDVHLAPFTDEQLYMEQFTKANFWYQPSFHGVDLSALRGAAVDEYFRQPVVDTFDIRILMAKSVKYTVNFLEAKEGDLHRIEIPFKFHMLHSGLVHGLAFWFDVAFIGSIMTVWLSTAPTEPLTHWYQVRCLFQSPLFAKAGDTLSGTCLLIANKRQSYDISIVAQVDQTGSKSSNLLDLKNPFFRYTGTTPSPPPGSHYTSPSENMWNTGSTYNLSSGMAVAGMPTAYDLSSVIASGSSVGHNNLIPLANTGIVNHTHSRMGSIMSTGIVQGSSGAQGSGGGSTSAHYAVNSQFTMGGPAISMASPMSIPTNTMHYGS
- ASSAY_NAME: Selectivity interaction (HMT panel) EUB0000194b CARM1
pIC50: −log10 of the molar value.
EXPERIMENTAL_ENDPOINT: pIC50

pIC50 reading for "COc1cc2c(NC3CCN(C(C)C)CC3)nc(N3CCC(F)(F)CC3)nc2cc1OCCCN1CCCC1" : < 5.00

* * *

- SYSTEM_TESTED: Sigma intracellular receptor 2 (Homo sapiens, UniProt Q5BJF2)
- Sequence (Q5BJF2 whole entry): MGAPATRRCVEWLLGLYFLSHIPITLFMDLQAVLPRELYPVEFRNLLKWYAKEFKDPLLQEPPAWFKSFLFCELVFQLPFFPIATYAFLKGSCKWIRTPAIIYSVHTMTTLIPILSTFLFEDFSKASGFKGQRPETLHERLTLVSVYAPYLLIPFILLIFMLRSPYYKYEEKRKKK
- ASSAY_NAME: Selectivity interaction (GPCR panel (PDSP screen)) EUB0000103c TMEM97
EXPERIMENTAL_ENDPOINT: Ki (nM)
Answer format: numeric, nM implied, no suffix.

Lab book: Ki of "CNCCN1CCC(OCc2ccccc2)CC1" noted as 574

* * *

- SYSTEM_TESTED: Inhibitor of nuclear factor kappa-B kinase subunit beta (Homo sapiens, UniProt O14920)
- Sequence (O14920 whole entry): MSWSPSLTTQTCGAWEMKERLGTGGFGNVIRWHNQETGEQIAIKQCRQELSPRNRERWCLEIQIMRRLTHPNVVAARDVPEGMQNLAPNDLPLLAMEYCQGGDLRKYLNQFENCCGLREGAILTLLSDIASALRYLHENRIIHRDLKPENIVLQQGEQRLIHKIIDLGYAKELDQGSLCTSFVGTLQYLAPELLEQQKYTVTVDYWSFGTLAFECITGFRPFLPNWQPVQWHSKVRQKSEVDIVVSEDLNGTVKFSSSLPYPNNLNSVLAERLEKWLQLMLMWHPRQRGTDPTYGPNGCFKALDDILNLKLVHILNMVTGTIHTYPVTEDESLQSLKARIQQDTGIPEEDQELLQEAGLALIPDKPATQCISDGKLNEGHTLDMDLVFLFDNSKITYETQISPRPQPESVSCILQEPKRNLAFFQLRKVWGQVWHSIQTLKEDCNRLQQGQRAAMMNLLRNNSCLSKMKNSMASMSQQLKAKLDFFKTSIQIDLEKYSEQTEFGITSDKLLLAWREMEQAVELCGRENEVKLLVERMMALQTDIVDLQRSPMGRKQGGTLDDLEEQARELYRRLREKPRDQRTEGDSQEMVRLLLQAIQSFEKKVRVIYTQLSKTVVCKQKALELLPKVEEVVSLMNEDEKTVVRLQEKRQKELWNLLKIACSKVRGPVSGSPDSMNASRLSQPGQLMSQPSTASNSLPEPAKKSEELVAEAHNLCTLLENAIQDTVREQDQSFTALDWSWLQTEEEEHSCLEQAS
- ASSAY_NAME: Selectivity interaction (Enzymatic assay) EUB0000624a IKBKB
EXPERIMENTAL_ENDPOINT: IC50

Consider "CCOc1ccn(-c2ccc(F)cc2)c(=O)c1C(=O)Nc1ccc(Oc2ccnc(N)c2Cl)c(F)c1" . Its measured IC50 is > 2000 nM
